Data origin: paper PMC9238271

experiment: Caco-2 monolayer permeability assay; type: in vitro ADME; details: Caco-2 Transwell A -> B, 1 µM EntF* apical, HBSS, LC1-MS1; average of AB1-AB6; read-out: Kapp, average
Observable: Papp A→B (nm/s)

{"Compound": "CC(C)C[C@@H]1NC(=O)[C@H](CO)NC(=O)[C@H](Cc2ccccc2)NC(=O)[C@H](C(C)C)NC(=O)[C@@H](NC(=O)[C@H](CCC(=O)O)NC(=O)[C@@H](NC(=O)[C@H](CC(C)C)NC(=O)[C@H](CC(N)=O)NC(=O)[C@@H](N)CO)C(C)C)CSSC[C@@H](C(=O)N[C@@H](CC(N)=O)C(=O)O)NC(=O)[C@H](CCCCN)NC(=O)[C@H](CCCCN)NC(=O)[C@H](Cc2ccccc2)NC1=O (single isomer, unassigned)", "Observable": "Papp A→B", "Units label": "nm/s", "Meas value": 0.0367}

* * *

assay: Serum kinetic profile and daily EntF* exposure after i.p. injection; format: in vivo, female Swiss nu/nu mice; conditions: female, Swiss nu/nu, mouse, serum, ip; after 100 nmol kg-1 EntF* i.p. injection; 30 min; mean of n = 4; read-out: Distribution phase / Elimination phase, serum level, Average

{"Molecule": "CC(C)C[C@@H]1NC(=O)[C@H](CO)NC(=O)[C@H](Cc2ccccc2)NC(=O)[C@H](C(C)C)NC(=O)[C@@H](NC(=O)[C@H](CCC(=O)O)NC(=O)[C@@H](NC(=O)[C@H](CC(C)C)NC(=O)[C@H](CC(N)=O)NC(=O)[C@@H](N)CO)C(C)C)CSSC[C@@H](C(=O)N[C@@H](CC(N)=O)C(=O)O)NC(=O)[C@H](CCCCN)NC(=O)[C@H](CCCCN)NC(=O)[C@H](Cc2ccccc2)NC1=O (single isomer, unassigned) [EntF*]", "level at time molar at 0.5 h, nM": 0.854}

* * *

assay: Serum kinetic profile and daily EntF* exposure after i.p. injection; format: in vivo, female Swiss nu/nu mice; settings: female, Swiss nu/nu, mouse, serum, ip; after 100 nmol kg-1 EntF* i.p. injection; 180 min; mean of n = 4; read-out: Elimination phase, serum level, Average

{"Molecule": "CC(C)C[C@@H]1NC(=O)[C@H](CO)NC(=O)[C@H](Cc2ccccc2)NC(=O)[C@H](C(C)C)NC(=O)[C@@H](NC(=O)[C@H](CCC(=O)O)NC(=O)[C@@H](NC(=O)[C@H](CC(C)C)NC(=O)[C@H](CC(N)=O)NC(=O)[C@@H](N)CO)C(C)C)CSSC[C@@H](C(=O)N[C@@H](CC(N)=O)C(=O)O)NC(=O)[C@H](CCCCN)NC(=O)[C@H](CCCCN)NC(=O)[C@H](Cc2ccccc2)NC1=O (single isomer, unassigned)", "Units label": "nM", "level at time molar at 3 h": 0.195}

* * *

test: EntF production in germ-free mice: EntF* in colon content and serum; format: in vivo, germ-free female C57BL6 mice; conditions: female, C57BL6, mouse, colon content; germ-free mice four days after oral gavage of 3 EntF-producing E. faecium strains (10^8 CFU/strain); LoD 1.9 pmol/g; LC1-MS1; mean ± SEM, n = 4; read-out: EntF* concentration in colon content
Observable: tissue level at time molar at 96 h (nmol/g)

{"Molecule": "CC(C)C[C@@H]1NC(=O)[C@H](CO)NC(=O)[C@H](Cc2ccccc2)NC(=O)[C@H](C(C)C)NC(=O)[C@@H](NC(=O)[C@H](CCC(=O)O)NC(=O)[C@@H](NC(=O)[C@H](CC(C)C)NC(=O)[C@H](CC(N)=O)NC(=O)[C@@H](N)CO)C(C)C)CSSC[C@@H](C(=O)N[C@@H](CC(N)=O)C(=O)O)NC(=O)[C@H](CCCCN)NC(=O)[C@H](CCCCN)NC(=O)[C@H](Cc2ccccc2)NC1=O (single isomer, unassigned)", "Meas value": 0.01}
